// values below are reported Average survival times (Days)
- Tested on: Pseudomonas aeruginosa ATCC 27853
- MEASUREMENT PROTOCOL: Injectable formulations on mice infected with peritonitis
- Type: in vivo, ICR mice
- CONDITION SET: 1 mg/kg via tail vein, twice a day for 3 days, observed for 14 d, n = 10
Marks after values point to notes of the source that are not given here. Non-standard residues stand in square brackets, D forms with d. Residues, ends and D or L forms follow the SMILES beside them. dPhe(4-CF3) = N[C@H](Cc1ccc(C(F)(F)F)cc1)C(=O)O; dPhe(4-Br) = N[C@H](Cc1ccc(Br)cc1)C(=O)O; d2Nal = N[C@H](Cc1ccc2ccccc2c1)C(=O)O; dNle = CCCC[C@@H](N)C(=O)O

Would you please look over these solved cases?
CC(=O)N[C@H](CCCNC(=N)N)C(=O)N[C@H](CCCCN)C(=O)N[C@H](CC(C)C)C(=O)N[C@H](CC(C)C)C(=O)N[C@H](Cc1ccc(C(F)(F)F)cc1)C(=O)N[C@H](CCCCN)C(=O)N[C@H](CC(C)C)C(=O)N[C@H](CCCCN)C(=O)N[C@H](Cc1ccc(C(F)(F)F)cc1)C(=O)N[C@H](CCCCN)C(=O)N[C@H](CCCNC(=N)N)C(N)=O [LV-9] (Ac-[dR][dK][dL][dL][dPhe(4-CF3)][dK][dL][dK][dPhe(4-CF3)][dK][dR]-NH2) : 9.3*** Days
CC(=O)N[C@H](CCCCN)C(=O)N[C@H](CCCCN)C(=O)N[C@H](CC(C)C)C(=O)N[C@H](CC(C)C)C(=O)N[C@H](Cc1ccc(Br)cc1)C(=O)N[C@H](CCCNC(=N)N)C(=O)N[C@H](CC(C)C)C(=O)N[C@H](CCCCN)C(=O)N[C@H](Cc1ccc(Br)cc1)C(=O)N[C@H](CCCNC(=N)N)C(=O)N[C@H](CCCCN)C(N)=O [LV-10] (Ac-[dK][dK][dL][dL][dPhe(4-Br)][dR][dL][dK][dPhe(4-Br)][dR][dK]-NH2) : 9.7*** Days
CCCC[C@@H](NC(=O)[C@@H](CCCCN)NC(=O)[C@@H](CCCNC(=N)N)NC(C)=O)C(=O)N[C@H](CCCC)C(=O)N[C@H](Cc1ccc2ccccc2c1)C(=O)N[C@H](CCCNC(=N)N)C(=O)N[C@H](CCCC)C(=O)N[C@H](CCCCN)C(=O)N[C@H](Cc1ccc2ccccc2c1)C(=O)N[C@H](CCCNC(=N)N)C(=O)N[C@H](CCCCN)C(N)=O [LV-12] (Ac-[dR][dK][dNle][dNle][d2Nal][dR][dNle][dK][d2Nal][dR][dK]-NH2) : 10.9**** Days

Ask: Give Average survival times (Days) for the following compound: CC(=O)N[C@H](CCCNC(=N)N)C(=O)N[C@H](CCCNC(=N)N)C(=O)N[C@H](CC(C)C)C(=O)N[C@H](CC(C)C)C(=O)N[C@H](Cc1ccc2ccccc2c1)C(=O)N[C@H](CCCNC(=N)N)C(=O)N[C@H](CC(C)C)C(=O)N[C@H](CCCCN)C(=O)N[C@H](Cc1ccc2ccccc2c1)C(=O)N[C@H](CCCNC(=N)N)C(=O)N[C@H](CCCCN)C(N)=O [LV-21] (Ac-[dR][dR][dL][dL][d2Nal][dR][dL][dK][d2Nal][dR][dK]-NH2)
Result: 9.2*** Days

Ask: Give Average survival times (Days) for the following compound: CC(=O)N[C@H](CCCNC(=N)N)C(=O)N[C@H](CCCCN)C(=O)N[C@@H](C(=O)N[C@@H](C(=O)N[C@H](Cc1ccc2ccccc2c1)C(=O)N[C@H](CCCNC(=N)N)C(=O)N[C@@H](C(=O)N[C@H](CCCCN)C(=O)N[C@H](Cc1ccc2ccccc2c1)C(=O)N[C@H](CCCNC(=N)N)C(=O)N[C@H](CCCCN)C(N)=O)C(C)C)C(C)C)C(C)C [LV-16] (Ac-[dR][dK][dV][dV][d2Nal][dR][dV][dK][d2Nal][dR][dK]-NH2)
Result: 8.1** Days

---

- System: Pseudomonas aeruginosa ATCC 27853
- MEASUREMENT PROTOCOL: Injectable formulations on mice infected with peritonitis
- Assay type: in vivo, ICR mice
- CONDITION SET: 1 mg/kg via tail vein, twice a day for 3 days, observed for 14 d, n = 10
Marks after values point to notes of the source that are not given here. Non-standard residues stand in square brackets, D forms with d. Residues, ends and D or L forms follow the SMILES beside them. dPhe(3,4-Cl2) = N[C@H](Cc1ccc(Cl)c(Cl)c1)C(=O)O
MEASURED METRIC: Average survival times (Days)

Ask: Give Average survival times (Days) for the following compound: CC(=O)N[C@H](CCCNC(=N)N)C(=O)N[C@H](CCCCN)C(=O)N[C@H](CC(C)C)C(=O)N[C@H](CC(C)C)C(=O)N[C@H](Cc1ccc(Cl)c(Cl)c1)C(=O)N[C@H](CCCCN)C(=O)N[C@H](CC(C)C)C(=O)N[C@H](CCCCN)C(=O)N[C@H](Cc1ccc(Cl)c(Cl)c1)C(=O)N[C@H](CCCCN)C(=O)N[C@H](CCCNC(=N)N)C(N)=O [LV-8] (Ac-[dR][dK][dL][dL][dPhe(3,4-Cl2)][dK][dL][dK][dPhe(3,4-Cl2)][dK][dR]-NH2)
Result: 9.6*** Days

---

- Test system: Pseudomonas aeruginosa ATCC 27853
- MEASUREMENT PROTOCOL: Injectable formulations on mice infected with peritonitis
- Assay type: in vivo, ICR mice
- CONDITION SET: 0.2 mg/kg via tail vein, twice a day for 3 days, observed for 14 d, n = 10
Marks after values point to notes of the source that are not given here. Non-standard residues stand in square brackets, D forms with d. Residues, ends and D or L forms follow the SMILES beside them. dPhe(3,4-F2) = N[C@H](Cc1ccc(F)c(F)c1)C(=O)O; d2Nal = N[C@H](Cc1ccc2ccccc2c1)C(=O)O; dNle = CCCC[C@@H](N)C(=O)O
// values below are reported Average survival times (Days)

Would you please look over these solved cases?
CC(=O)N[C@H](CCCNC(=N)N)C(=O)N[C@H](CCCNC(=N)N)C(=O)N[C@H](CC(C)C)C(=O)N[C@H](CC(C)C)C(=O)N[C@H](Cc1ccc2ccccc2c1)C(=O)N[C@H](CCCNC(=N)N)C(=O)N[C@H](CC(C)C)C(=O)N[C@H](CCCNC(=N)N)C(=O)N[C@H](Cc1ccc2ccccc2c1)C(=O)N[C@H](CCCNC(=N)N)C(=O)N[C@H](CCCNC(=N)N)C(N)=O [LV-1] (Ac-[dR][dR][dL][dL][d2Nal][dR][dL][dR][d2Nal][dR][dR]-NH2) : 7.3** Days
CC(=O)N[C@H](CCCCN)C(=O)N[C@H](CCCCN)C(=O)N[C@H](CC(C)C)C(=O)N[C@H](CC(C)C)C(=O)N[C@H](Cc1ccc2ccccc2c1)C(=O)N[C@H](CCCCN)C(=O)N[C@H](CC(C)C)C(=O)N[C@H](CCCCN)C(=O)N[C@H](Cc1ccc2ccccc2c1)C(=O)N[C@H](CCCCN)C(=O)N[C@H](CCCCN)C(N)=O [LV-17] (Ac-[dK][dK][dL][dL][d2Nal][dK][dL][dK][d2Nal][dK][dK]-NH2) : 7.3** Days
CC(=O)N[C@H](CCCCN)C(=O)N[C@H](CCCCN)C(=O)N[C@H](CC(C)C)C(=O)N[C@H](CC(C)C)C(=O)N[C@H](Cc1ccc(F)c(F)c1)C(=O)N[C@H](CCCNC(=N)N)C(=O)N[C@H](CC(C)C)C(=O)N[C@H](CCCCN)C(=O)N[C@H](Cc1ccc(F)c(F)c1)C(=O)N[C@H](CCCNC(=N)N)C(=O)N[C@H](CCCCN)C(N)=O [LV-25] (Ac-[dK][dK][dL][dL][dPhe(3,4-F2)][dR][dL][dK][dPhe(3,4-F2)][dR][dK]-NH2) : 7.2** Days
CCCC[C@@H](NC(=O)[C@@H](CCCCN)NC(=O)[C@@H](CCCNC(=N)N)NC(C)=O)C(=O)N[C@H](CCCC)C(=O)N[C@H](Cc1ccc2ccccc2c1)C(=O)N[C@H](CCCNC(=N)N)C(=O)N[C@H](CCCC)C(=O)N[C@H](CCCCN)C(=O)N[C@H](Cc1ccc2ccccc2c1)C(=O)N[C@H](CCCNC(=N)N)C(=O)N[C@H](CCCCN)C(N)=O [LV-12] (Ac-[dR][dK][dNle][dNle][d2Nal][dR][dNle][dK][d2Nal][dR][dK]-NH2) : 7.3** Days
CC(=O)N[C@H](CCCNC(=N)N)C(=O)N[C@H](CCCCN)C(=O)N[C@H](CC(C)C)C(=O)N[C@H](CC(C)C)C(=O)N[C@H](Cc1ccc2ccccc2c1)C(=O)N[C@H](CCCNC(=N)N)C(=O)N[C@H](CC(C)C)C(=O)N[C@H](CCCCN)C(=O)N[C@H](Cc1ccc2ccccc2c1)C(=O)N[C@H](CCCNC(=N)N)C(=O)N[C@H](CCCCN)C(N)=O [LV-20] (Ac-[dR][dK][dL][dL][d2Nal][dR][dL][dK][d2Nal][dR][dK]-NH2) : 7.0** Days

Ask: Give Average survival times (Days) for the following compound: CC(=O)N[C@H](CCCNC(=N)N)C(=O)N[C@H](CCCCN)C(=O)N[C@H](CC(C)C)C(=O)N[C@H](CC(C)C)C(=O)N[C@H](Cc1ccc2ccccc2c1)C(=O)N[C@H](CCCCN)C(=O)N[C@H](CC(C)C)C(=O)N[C@H](CCCCN)C(=O)N[C@H](Cc1ccc2ccccc2c1)C(=O)N[C@H](CCCCN)C(=O)N[C@H](CCCNC(=N)N)C(N)=O [LV-18] (Ac-[dR][dK][dL][dL][d2Nal][dK][dL][dK][d2Nal][dK][dR]-NH2)
Result: 7.2** Days

Ask: Give Average survival times (Days) for the following compound: CC(=O)N[C@H](CCCNC(=N)N)C(=O)N[C@H](CCCCN)C(=O)N[C@H](CC(C)C)C(=O)N[C@H](CC(C)C)C(=O)N[C@H](Cc1ccc(F)c(F)c1)C(=O)N[C@H](CCCCN)C(=O)N[C@H](CC(C)C)C(=O)N[C@H](CCCCN)C(=O)N[C@H](Cc1ccc(F)c(F)c1)C(=O)N[C@H](CCCCN)C(=O)N[C@H](CCCNC(=N)N)C(N)=O [LV-6] (Ac-[dR][dK][dL][dL][dPhe(3,4-F2)][dK][dL][dK][dPhe(3,4-F2)][dK][dR]-NH2)
Result: 7.9** Days

Ask: Give Average survival times (Days) for the following compound: CC(=O)N[C@H](CCCNC(=N)N)C(=O)N[C@H](CCCCN)C(=O)N[C@H](CC(C)C)C(=O)N[C@H](CC(C)C)C(=O)N[C@H](Cc1ccccc1)C(=O)N[C@H](CCCNC(=N)N)C(=O)N[C@H](CC(C)C)C(=O)N[C@H](CCCCN)C(=O)N[C@H](Cc1ccccc1)C(=O)N[C@H](CCCNC(=N)N)C(=O)N[C@H](CCCCN)C(N)=O [LV-2] (Ac-[dR][dK][dL][dL][dF][dR][dL][dK][dF][dR][dK]-NH2)
Result: 7.8** Days

Ask: Give Average survival times (Days) for the following compound: CC(=O)N[C@H](CCCCN)C(=O)N[C@H](CCCCN)C(=O)N[C@H](CC(C)C)C(=O)N[C@H](CC(C)C)C(=O)N[C@H](Cc1ccc2ccccc2c1)C(=O)N[C@H](CCCNC(=N)N)C(=O)N[C@H](CC(C)C)C(=O)N[C@H](CCCCN)C(=O)N[C@H](Cc1ccc2ccccc2c1)C(=O)N[C@H](CCCNC(=N)N)C(=O)N[C@H](CCCCN)C(N)=O [LV-19] (Ac-[dK][dK][dL][dL][d2Nal][dR][dL][dK][d2Nal][dR][dK]-NH2)
Result: 7.7** Days
